z-score values by entry
assay: A549 cell viability effects, profiling panel, calcein-AM fluorescence, 48 h, basal (AID 1162); details: higher = more signal; note: test concentration not given here

Use these answered entries as a reference point.
Compound | z-score
CO[C@@H]1COC(=O)[C@H](C)NC(=O)CC=C[C@@H](C)[C@H](OC)COC(=O)[C@H](C)NC(=O)CC=C[C@H]1C | 1.2
Cc1ccc(S[C@]2(C(=O)NCCCN(C)C)CC(=O)N(Cc3ccccc3)[C@@H]2c2ccc(CO)cc2I)cc1 | 1.03
C/C(=N\O)C(=O)NCCCCCNC(=O)OCc1ccccc1 | 1.3

Below: the item to evaluate.
Query string: Reported z-score for N#Cc1ccc(NN2C(C(O)CCc3ccccc3)C=CC3C(=O)N(c4ccccc4)C(=O)C32)cc1 (centres undefined) : what is it?
Result string: 0.422

###

test: MM1S cell viability effects, profiling panel, calcein-AM fluorescence, 48 h, basal (AID 1165); conditions: higher = more signal;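 note: viability of MM1S multiple myeloma cells under basal unstimulated conditions; test concentration not given here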
z-score values by entry
Give only the figure.

Use these answered entries as a reference point.
Molecule | Measurement Type | Endpoint Value
C[C@@H]1NC(=O)[C@H](Cc2ccccc2)NC(=O)[C@@]23C(=O)N[C@@H](Cc4ccccc4)C2[C@H](C)[C@@]2(C)O[C@H]2C3/C=C/C/C=C\CNC1=O (some centres undefined) | z-score | 0.0254
C[C@@H]1C=CCC(=O)OC[C@H]2O[C@@H](C=C[C@@H]2O)[C@H](C)C=CCC(=O)OC[C@H]2O[C@H]1C=C[C@@H]2O | z-score | 0.631
C[C@@H]1CC[C@H]2C(=O)N3CCC[C@H]3C(=O)N2[C@H]1c1ccc(Br)cc1 | z-score | 0.517

Query string: Reported z-score for `CO[C@@H]1COC(=O)[C@H](C)NC(=O)CC=C[C@@H](C)[C@H](OC)COC(=O)[C@H](C)NC(=O)CC=C[C@H]1C` : what is it?
Result string: 0.419

###

assay: splicing luciferase reporter signal modulators, primary screen, spliceosome inhibition project, cell-based, HEK293, splice +/- reporter (AID 1101); details: luminescence, 24 h, higher = more signal, called active from +8 up or from −8 down;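 note: HEK293 cells carrying a splicing-competent luciferase reporter gene; test concentration not given here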
z-score values by entry
Give only the figure.

Query string: Reported z-score for `COCCOC(=O)N1C(=O)[C@@]2(c3cc(C#CC4(O)CCCCCC4)ccc31)[C@H](C(=O)N1CCCCCCC1)[C@H]1C(=O)O[C@H](c3ccccc3)[C@H](c3ccccc3)N1[C@@H]2c1ccc(O)cc1` : what is it?
Result string: -0.0148

###

test: cell viability in Huh7 cells, primary screen, cytotoxicity control for HCV replication inhibitor project, CellTiter-Glo luminescence, basal, 48 h (AID 1143); details: Huh7 HCV replicon, higher = more signal, called active from +8 up or from −8 down;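 note: Huh7 hepatoma cells carrying a hepatitis C replication reporter with no stimulus; test concentration not given here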
z-score values by entry
Give only the figure.

Use these answered entries as a reference point.
Compound | Endpoint Value
COCCOC(=O)N1C(=O)[C@@]2(c3cc(C#CCC(C(=O)OC)C(=O)OC)ccc31)[C@H](c1ccccc1OCCO)N1[C@H](c3ccccc3)[C@H](c3ccccc3)OC(=O)[C@H]1[C@@H]2C(=O)N1CCCCCCC1 | -1.66
COC(=O)[C@@]1(Cc2ccc(OC)cc2)[C@H]2c3cc(C(=O)N(C)C)n(Cc4ccc(C)c(F)c4F)c3C[C@H]2CN1C(=O)c1ccccc1 | -1.49
O=C(CS)NCCCCCNC(=O)[C@H]1C[C@H]2C(=O)N[C@@H](Cc3ccccc3)C(=O)N2[C@H]1c1ccc(O)cc1 | -0.164
Cc1ccc(N2C(=O)c3ccccc3[C@@H](C(=O)NCc3ccccc3)[C@@H]2c2ccc(CO)cc2)nc1 | -1.54
C#CCNC(/C=C/c1ccccc1)CO (centres undefined) | 0.171
CCOC(=O)C[C@H]1[C@H](OC(=O)c2ccccc2-c2ccccc2)[C@@H](NC(=O)c2ccc(-c3ccccc3)cc2)c2cc(OCCCO)ccc2N1C(=O)Cc1ccc(OC)cc1 | 0.132
Cc1cc(C)c(C(O)C2C=CC3C(=O)N(C)C(=O)C3N2N2CCCCC2)c(C)c1 (centres undefined) | 1.09
NC(=O)NCC#Cc1ccc2c(c1)[C@]1(C(=O)N2)[C@H](c2ccccc2OCCO)N2[C@H](c3ccccc3)[C@H](c3ccccc3)OC(=O)[C@H]2[C@@H]1C(=O)N1CCN(c2ncccn2)CC1 | -4.21
CO[C@H]1O[C@H](CO)[C@@H](OC(=O)Nc2ccccc2)[C@H](OC(=O)Nc2ccc3c(c2)OCO3)[C@@H]1OC(=O)Nc1ccc2c(c1)OCO2 | -3.67
CC(=O)NCCCC[C@@H]1NC(=O)[C@@H]2C[C@H](C(=O)NCCCCCCN(C)C)[C@H](c3ccc(O)cc3)N2C1=O | -0.849

Query string: Reported z-score for `COC(=O)[C@H]1[C@@H]2COc3ccccc3[C@H]2N[C@H]1C(=O)OC` : what is it?
Result string: 0.508

Query string: Reported z-score for `CCCC=C(CCC)[C@@H](NC(=O)c1ccccc1)c1ccccc1` : what is it?
Result string: -1.26

Query string: Reported z-score for `O=C1C[C@@](C(=O)NC2CC2)(c2ccc([N+](=O)[O-])cc2)[C@@H](c2ccc(CO)cc2I)N1CC12CC3CC(CC(C3)C1)C2` : what is it?
Result string: -5.82

Query string: Reported z-score for `CN(C)C(=O)[C@@]1(Cc2ccccc2N=[N+]=[N-])N=C(c2ccc(OCCCO)cc2)O[C@H]1c1ccccc1CN=[N+]=[N-]` : what is it?
Result string: -3.09

Query string: Reported z-score for `Cc1ccc(S[C@]2(C(=O)NC3CC3)CC(=O)N(Cc3cc(C(F)(F)F)cc(C(F)(F)F)c3)[C@@H]2c2ccc(CO)cc2)cc1` : what is it?
Result string: -2.38

Query string: Reported z-score for `CC(C)CNC(=O)[C@@]1(C)c2ccccc2C(=O)N(Cc2ccc(OC(F)(F)F)cc2)[C@H]1c1ccc(CO)cc1` : what is it?
Result string: -1.65

###

test: small-molecule binders of probe aNOTCH2, primary screen, biochemical, small-molecule microarray, 635/667 nm fluorescence (AID 1121); conditions: higher = more signal;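 note: score merges feature fluorescence read at 667 nm with its signal to noise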
Measurement Type: composite z-score

Use these answered entries as a reference point.
Compound | Measurement Type | Endpoint Value
CC(C)[Si]1(C(C)C)O[C@@H](c2ccccc2)c2cc(C3CC3)nc(-c3ccc(Oc4ccccc4)cc3)c21 | composite z-score | -0.125
CCCNC(=O)[C@@]1(Sc2ccc(C)cc2)CC(=O)N(Cc2ccccc2Cl)[C@@H]1c1ccc(CO)cc1 | composite z-score | -0.0906
COCCOC(=O)N1C(=O)[C@@]2(c3cc(C#CC4=CCCCC4)ccc31)[C@H](C(=O)NC[C@H](O)c1ccccc1)[C@H]1C(=O)O[C@H](c3ccccc3)[C@H](c3ccccc3)N1[C@@H]2c1ccccc1OCCO | composite z-score | -0.0311
O=C1C2C=CC(C(O)Cc3ccccc3)N(Nc3ccc([N+](=O)[O-])cc3)C2C(=O)N1c1ccccc1 (configuration not stated) | composite z-score | 0.401
Cc1ccc(N2C(=O)c3ccccc3[C@](C)(C(=O)O)[C@@H]2c2ccc(CO)cc2)nc1 | composite z-score | -0.228

Query string: Reported composite z-score for `O=C1c2ccccc2[C@@]2(Cc3ccccc3N(CC(F)(F)F)C2=O)[C@H](c2ccc(CO)cc2)N1C1CCCCC1` : what is it?
Result string: -0.122

Query string: Reported composite z-score for `COC(=O)Cn1c(C(=O)N2CCCC2)cc2c1C[C@H]1CN(C(=O)c3ccccc3)[C@@](Cc3ccc(OC)cc3)(C(=O)OC)[C@@H]21` : what is it?
Result string: 0.375

###

test: yeast growth modulation, basal conditions, primary screen, YJM789 clinical isolate, OD600, 24 h (AID 1089);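 note: growth of clinical yeast isolate S. cerevisiae YJM 789 seeded 1000 cells per well; test concentration not given here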; conditions: S. cerevisiae YJM789 growth, higher = more signal, called active from +8 up or from −8 down
z-score values by entry
Give only the figure.

Use these answered entries as a reference point.
Compound | z-score
CCOC(=O)C1=C[C@@H](c2ccccc2)N(S(=O)(=O)c2ccc(C)cc2)[C@H]1c1ccc(F)cc1 | 0.575
COc1ccc([Si](C)(C)[C@H]2[C@H](CCO)O[C@@]3(C(=O)N(Cc4ccccc4)c4ccc(N5C(=O)c6cccc7cccc5c67)cc43)[C@@H]2C)cc1 | 1.05
C[N+](C)(C)CCCC[C@@H]1NC(=O)[C@H]2C[C@@H](C(=O)NCc3ccc(F)cc3)[C@@H](c3cccc(OCCO)c3)N2C1=O | -1.69
C=CC(=O)O[C@@H](Cc1ccccc1)[C@H]1C2C=CCCC=C2CN1Cc1cccc(Cl)c1 (stereo partly drawn) | -0.476

Query string: Reported z-score for C[C@@H]1NC(=O)[C@H](Cc2ccccc2)NC(=O)[C@@]23C(=O)N[C@@H](Cc4ccccc4)C2[C@H](C)[C@@]2(C)O[C@H]2C3/C=C/C/C=C\CNC1=O (stereo partly drawn) : what is it?
Result string: 0.723

Query string: Reported z-score for `COCCCNC(=O)[C@@]1(c2ccc([N+](=O)[O-])cc2)CC(=O)N(C2CCCCC2)[C@@H]1c1ccc(CO)cc1` : what is it?
Result string: -0.707

Query string: Reported z-score for C=CCC(OC(C)=O)[C@@H]1[C@@H](N(Cc2cccc3ccccc23)C(=O)c2ccc(C)cc2)c2cc(OCCCO)ccc2N1C(=O)c1ccc(-c2ccccc2)cc1 (stereo partly drawn) : what is it?
Result string: -2.24
